Cited source: the supplement of paper PMC9112550

Tested on: Escherichia coli TOP10
Assay: shrunken log2 fold change of peptide-encoding DNA abundance (4.5 h post-induction vs induction); higher = less antimicrobial activity (less host growth inhibition)
Details: time post-induction: 4.5 h; library: site-saturation at positions 5, 18, 19, 20
# label = bin(measured shrunken log2 fold change), where bins are lower segment = under -0.2, middle segment = from -0.2 up to -0.002, upper segment = -0.002 and over

Query: Field: class (shrunken log2 fold change) — entry: `RRIRARPPRLPRPRPRPRSGPRP`
Response: upper segment

Query: Each sequence maps to one class by shrunken log2 fold change. Which class for `RRIRLRPPRLPRPRPRPQRGPRP` ?
Response: upper segment

Query: Could you place `RRIRMRPPRLPRPRPRPTYKPRP` in its proper category? Many thanks.
Response: middle segment

Query: Note: place this sequence into its band. Item: `RRIRNRPPRLPRPRPRPDVCPRP`
Response: middle segment

Query: Which class is correct for the following sequence? `RRIRQRPPRLPRPRPRPIQNPRP`
Response: middle segment

Query: Please indicate the class for `RRIRCRPPRLPRPRPRPCLKPRP` based on its shrunken log2 fold change.
Response: lower segment

Query: Band assignment needed for `RRIRSRPPRLPRPRPRPMKDPRP` please.
Response: middle segment

Query: Could you tell me which band `RRIRDRPPRLPRPRPRPHVAPRP` belongs to?
Response: middle segment

Query: Into which bin does this sequence go? `RRIRTRPPRLPRPRPRPLCKPRP`
Response: lower segment

Query: Into which category would you place `RRIRERPPRLPRPRPRPISIPRP` ?
Response: lower segment

Query: // return the class label for `RRIRKRPPRLPRPRPRPPRRPRP`
Response: upper segment

Query: Category of `RRIRFRPPRLPRPRPRPDKVPRP` :
Response: lower segment

Query: Which bin should I file `RRIRMRPPRLPRPRPRPQVQPRP` under?
Response: upper segment

Query: Lab note: sort `RRIRKRPPRLPRPRPRPSNGPRP` into the matching shrunken log2 fold change band.
Response: upper segment

Query: Which category does the recorded shrunken log2 fold change put `RRIRGRPPRLPRPRPRPMCVPRP` in?
Response: upper segment

====

Tested on: Escherichia coli TOP10
Assay: shrunken log2 fold change of peptide-encoding DNA abundance (4.5 h post-induction vs induction); higher = less antimicrobial activity (less host growth inhibition)
Settings: time post-induction: 4.5 h; library: site-saturation at positions 5, 18, 19, 20
Label rule, in plain words: shrunken log2 fold change of -0.009 and up is Yes, under -0.009 is No.

For orientation, consider the following solved cases.
[[record]]
chain = "RRIRQRPPRLPRPRPRPSINPRP"
assigned_category = "No"

[[record]]
chain = "RRIRVRPPRLPRPRPRPYDDPRP"
assigned_category = "Yes"

[[record]]
chain = "RRIRHRPPRLPRPRPRPLKVPRP"
assigned_category = "Yes"

[[record]]
chain = "RRIRIRPPRLPRPRPRPTWAPRP"
assigned_category = "Yes"

[[record]]
chain = "RRIRLRPPRLPRPRPRPSVQPRP"
assigned_category = "No"


Query: Determine whether measured shrunken log2 fold change meets or exceeds -0.009 for `RRIRLRPPRLPRPRPRPRGNPRP`
Response: Yes

====

Tested on: Escherichia coli TOP10
Experiment: shrunken log2 fold change of peptide-encoding DNA abundance (4.5 h post-induction vs induction); higher = less antimicrobial activity (less host growth inhibition)
Conditions: time post-induction: 4.5 h; library: site-saturation at positions 5, 18, 19, 20
Readout label: shrunken log2 fold change

Some solved cases for reference:
[[record]]
chain = "RRIRTRPPRLPRPRPRPQQWPRP"
readout_label = "shrunken log2 fold change"
result = 0.46

[[record]]
chain = "RRIRWRPPRLPRPRPRPSHFPRP"
readout_label = "shrunken log2 fold change"
result = -0.151

[[record]]
chain = "RRIRPRPPRLPRPRPRPTDLPRP"
readout_label = "shrunken log2 fold change"
result = -0.0166

[[record]]
chain = "RRIRVRPPRLPRPRPRPMKQPRP"
readout_label = "shrunken log2 fold change"
result = -0.0165

[[record]]
chain = "RRIRNRPPRLPRPRPRPILSPRP"
readout_label = "shrunken log2 fold change"
result = -0.00144

[[record]]
chain = "RRIRDRPPRLPRPRPRPRTHPRP"
readout_label = "shrunken log2 fold change"
result = -0.188

[[record]]
chain = "RRIRCRPPRLPRPRPRPLHCPRP"
readout_label = "shrunken log2 fold change"
result = -0.1

[[record]]
chain = "RRIRTRPPRLPRPRPRPTQDPRP"
readout_label = "shrunken log2 fold change"
result = 0.837

[[record]]
chain = "RRIRLRPPRLPRPRPRPGHLPRP"
readout_label = "shrunken log2 fold change"
result = 0.00551

[[record]]
chain = "RRIRDRPPRLPRPRPRPYKHPRP"
readout_label = "shrunken log2 fold change"
result = -1.13


Given item `RRIRDRPPRLPRPRPRPQPIPRP` , the value recorded as its shrunken log2 fold change is 0.152

shrunken log2 fold change measured on `RRIRTRPPRLPRPRPRPYPGPRP` = -0.164

====

# reported shrunken log2 fold change; entries follow
Tested on: Escherichia coli TOP10
Assay: shrunken log2 fold change of peptide-encoding DNA abundance (4.5 h post-induction vs induction); higher = less antimicrobial activity (less host growth inhibition)
Conditions: time post-induction: 4.5 h; library: site-saturation at positions 5, 18, 19, 20
Form rule: numeric answer, no unit written next to it.

Known shrunken log2 fold change results, listed for orientation:
[[record]]
chain = "RRIRERPPRLPRPRPRPANIPRP"
result = -0.465

[[record]]
chain = "RRIRPRPPRLPRPRPRPVVSPRP"
result = -0.0387

[[record]]
chain = "RRIRKRPPRLPRPRPRPIIYPRP"
result = 0.0162

[[record]]
chain = "RRIRCRPPRLPRPRPRPGNFPRP"
result = -0.0984

[[record]]
chain = "RRIRMRPPRLPRPRPRPNKRPRP"
result = 0.261


So, `RRIRERPPRLPRPRPRPADSPRP` ? Its shrunken log2 fold change was -0.157

For record `RRIRLRPPRLPRPRPRPSIGPRP` the listed shrunken log2 fold change is -0.378

Lab book: shrunken log2 fold change of `RRIRTRPPRLPRPRPRPCATPRP` noted as -0.0683

Record summary for `RRIRIRPPRLPRPRPRPINYPRP` : reported shrunken log2 fold change = -0.379

Please fill in: shrunken log2 fold change reported for `RRIRERPPRLPRPRPRPPMQPRP` = 0.225

====

Tested on: Escherichia coli TOP10
Experiment: shrunken log2 fold change of peptide-encoding DNA abundance (4.5 h post-induction vs induction); higher = less antimicrobial activity (less host growth inhibition)
Conditions: time post-induction: 4.5 h; library: site-saturation at positions 5, 18, 19, 20
Given measured shrunken log2 fold change, output MET if it is greater than or equal to -0.02 and NOT MET if not.

[[record]]
chain = "RRIRARPPRLPRPRPRPIWAPRP"
system_name = "Escherichia coli TOP10"
assigned_category = "MET"

[[record]]
chain = "RRIRERPPRLPRPRPRPCGWPRP"
system_name = "Escherichia coli TOP10"
assigned_category = "MET"

[[record]]
chain = "RRIRQRPPRLPRPRPRPLMLPRP"
system_name = "Escherichia coli TOP10"
assigned_category = "NOT MET"


Query: // inclusive: shrunken log2 fold change at least -0.02? input: `RRIRTRPPRLPRPRPRPPFEPRP`
Response: MET

Query: Dear colleague, could you confirm whether `RRIRERPPRLPRPRPRPLSPPRP` has shrunken log2 fold change at or above -0.02?
Response: NOT MET

Query: Decide: is the reported value of shrunken log2 fold change for `RRIRQRPPRLPRPRPRPTAMPRP` equal to or greater than -0.02?
Response: MET

Query: Given `RRIRLRPPRLPRPRPRPSWQPRP` , state whether its shrunken log2 fold change is at least -0.02.
Response: NOT MET

Query: Say whether `RRIRFRPPRLPRPRPRPLLKPRP` shows shrunken log2 fold change of -0.02 or more.
Response: NOT MET

Query: Determine whether this sequence has shrunken log2 fold change no lower than -0.02: `RRIRIRPPRLPRPRPRPCYYPRP`
Response: NOT MET

Query: Is the recorded value of shrunken log2 fold change equal to or greater than -0.02 for this sequence? `RRIRYRPPRLPRPRPRPHQVPRP`
Response: NOT MET

====

Test system: Escherichia coli TOP10;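 also: peptides expressed intracellularly from a pBAD plasmid library in pooled LB shake-flask culture, induced with 0.3% L-arabinose, DNA abundance read by NGS, three biological replicates, DESeq2 with apeglm shrinkage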
Assay: shrunken log2 fold change of peptide-encoding DNA abundance (4.5 h post-induction vs induction); higher = less antimicrobial activity (less host growth inhibition)
Details: time post-induction: 4.5 h; library: site-saturation at positions 5, 18, 19, 20
Readout label: shrunken log2 fold change

[[record]]
chain = "RRIRNRPPRLPRPRPRPIMWPRP"
result = 0.137

[[record]]
chain = "RRIRWRPPRLPRPRPRPGTSPRP"
result = 0.304


Item: `RRIRFRPPRLPRPRPRPQGDPRP` | shrunken log2 fold change: 0.014

According to the records, this sequence `RRIRARPPRLPRPRPRPIFAPRP` displays shrunken log2 fold change of 0.555

shrunken log2 fold change reading for `RRIRIRPPRLPRPRPRPMQSPRP` : 0.0163

The sequence `RRIRNRPPRLPRPRPRPYWSPRP` showed shrunken log2 fold change equal to -0.195

Reported shrunken log2 fold change of `RRIRNRPPRLPRPRPRPRRFPRP` : 0.0247

Value of measured shrunken log2 fold change for the entry `RRIRERPPRLPRPRPRPEMKPRP` : 0.425

Quick note, shrunken log2 fold change for `RRIRKRPPRLPRPRPRPQEGPRP` landed at -0.00136

// `RRIRGRPPRLPRPRPRPHFFPRP` : shrunken log2 fold change value = 0.328

// recorded shrunken log2 fold change for `RRIRIRPPRLPRPRPRPAQYPRP` : -0.13

Recorded shrunken log2 fold change (sequence `RRIRPRPPRLPRPRPRPFLCPRP` ): -0.0669

sequence `RRIRYRPPRLPRPRPRPNPHPRP` , shrunken log2 fold change observed: -0.639

According to the records, this sequence `RRIRNRPPRLPRPRPRPDWDPRP` displays shrunken log2 fold change of -0.108

// shrunken log2 fold change value for `RRIRGRPPRLPRPRPRPYGSPRP` : -0.303

Input `RRIRLRPPRLPRPRPRPDFLPRP` . Output shrunken log2 fold change: -0.181
